# target-system: T1, human GITR (human, UniProt Q9Y5U5 26-241)
# T1 sequence: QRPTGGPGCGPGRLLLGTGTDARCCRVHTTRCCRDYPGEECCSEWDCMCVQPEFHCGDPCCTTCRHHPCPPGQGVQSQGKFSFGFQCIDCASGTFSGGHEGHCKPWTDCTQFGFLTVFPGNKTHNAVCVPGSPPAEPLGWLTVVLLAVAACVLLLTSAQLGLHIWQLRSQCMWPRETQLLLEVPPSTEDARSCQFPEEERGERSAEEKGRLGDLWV
# assay-notes: cell-based or functional assay
# key: entry, value: Proliferation (Fold over CD3)
Number in fold over CD3, nothing else.

As a guide, the following entries are already answered.
9H6v3 (antibody, human IgG1, kappa, V domains shown, Engineered variant; also called Ab46; SS-13806) VH: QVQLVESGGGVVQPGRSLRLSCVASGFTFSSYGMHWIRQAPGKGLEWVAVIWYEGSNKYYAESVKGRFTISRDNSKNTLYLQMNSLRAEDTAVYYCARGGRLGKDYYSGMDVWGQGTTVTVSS VL: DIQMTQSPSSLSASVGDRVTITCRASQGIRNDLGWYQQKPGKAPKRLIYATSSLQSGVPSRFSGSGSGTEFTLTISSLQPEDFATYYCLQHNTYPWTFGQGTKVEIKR :: 3.7
7A10v1 (antibody, human IgG1, kappa, V domains shown, Engineered variant; also called Ab39; SS-13810) VH: QVQLVESGGGVVQPGRSLRLSCAASGFTFSSYGMHWVRQAPGKGLEWMAVIWYVGSNKYYADSVKGRFTISRDNSKNTLYLQMNSLRAEDTAVYYCARGGELGRDYYSGMDVWGQGTTVTVSS VL: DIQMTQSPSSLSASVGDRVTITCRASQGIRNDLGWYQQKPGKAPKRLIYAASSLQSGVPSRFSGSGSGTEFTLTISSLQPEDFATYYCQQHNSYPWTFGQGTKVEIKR :: 3

Query string: Annotate the binder 5H7v2 (antibody, human IgG1, kappa, V domains shown, Engineered variant; also called Ab26; SS-13807) VH: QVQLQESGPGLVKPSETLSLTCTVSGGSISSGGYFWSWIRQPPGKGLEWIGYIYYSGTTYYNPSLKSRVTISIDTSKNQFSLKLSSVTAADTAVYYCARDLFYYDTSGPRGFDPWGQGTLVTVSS VL: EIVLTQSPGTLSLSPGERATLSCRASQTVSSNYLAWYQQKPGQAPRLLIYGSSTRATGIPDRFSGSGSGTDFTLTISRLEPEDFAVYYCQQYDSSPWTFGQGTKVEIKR with its measured Proliferation (Fold over CD3).
Result string: 3.2

Query string: Give me measured Proliferation (Fold over CD3), please, for this binder: 41G5v2 (antibody, human IgG1, kappa, V domains shown, Engineered variant; also called Ab56; SS-13809) VH: QVQLVESGGGVVQPGRSLRLSCAASGFTFSSYGMHWVRQAPGKGLEWVAVIWYPGSNKYYAESVKGRFTISRDNSKNTLYLQMNSLRAEDTAVYYCARGGELGRYYYYGMDVWGQGTTVTVSS VL: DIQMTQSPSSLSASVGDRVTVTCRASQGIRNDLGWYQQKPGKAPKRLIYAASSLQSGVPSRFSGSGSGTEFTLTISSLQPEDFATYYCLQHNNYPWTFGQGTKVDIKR
Result string: 3.5

Query string: Write down Proliferation (Fold over CD3) measured for item 33C9v2 (antibody, human IgG1, kappa, V domains shown, Engineered variant; also called Ab51; SS-13808) VH: QVQVVESGGGVVQPGRSLRLSCAASGFTFSSYGMHWVRQAPGKGLEWVSVIWYEGSNKYYAESVKGRFTISRDNSKNTLYLQMNSLRAEDTAVYYCARGGLLGYYYYYGMDVWGQGTTVTVSS VL: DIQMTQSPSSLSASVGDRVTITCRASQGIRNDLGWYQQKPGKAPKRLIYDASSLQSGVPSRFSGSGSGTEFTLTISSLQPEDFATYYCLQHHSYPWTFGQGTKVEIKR
Result string: 2.9
